# assay system: T1, ZFP SBS#252 (synthetic)
# T1 chain: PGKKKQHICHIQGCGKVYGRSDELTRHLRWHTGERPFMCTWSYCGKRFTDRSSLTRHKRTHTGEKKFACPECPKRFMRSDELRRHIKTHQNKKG
# measurement notes: EMSA
# recorded conditions: tags: MBP fusion
measured quantity: pKd
For clarity, pKd is expressed as the negative log10 of concentration in mol/L.

Quick one: pKd of GCGGCCGCG (dsDNA) DNA 1: GCGGCCGCG DNA 2: CGCGGCCGC ? 7.00
